Hi there, I'd appreciate the recorded %Inh for every entry that follows.
Test system: PRKCI
stated conditions: concentration: 1 μM, replicates: in singlicate; n = 1;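 further: KINOMEscan kinase panel screen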
// unit must come after the numeric part

# query: %Inh of entry `O=C1NC(=O)C(c2ccccc2Cl)=C1Nc1cccc(Cl)c1`
9%

# query: %Inh of entry `Cc1ccc(O)cc1Nc1ccnc2ccc(C(C)(C)C)cc12`
39%

# query: %Inh of entry `CC(C)c1nc(-c2cccc(NS(=O)(=O)c3c(F)cccc3F)c2)c(-c2ccnc(Nc3ccc(N4CCOCC4)nc3)n2)s1.Cl`
20%

# query: %Inh of entry `O=C(O)C(F)(F)F.O=c1[nH]ccc2nc(N[C@@H]3CCNC3)nc(Nc3ccc4c(c3)S(=O)(=O)CC4)c12`
78%

# query: %Inh of entry `Nc1ncc(-c2ccc3nccc(-c4ccncc4)c3c2)cc1S(=O)(=O)N1CCCCC1`
9%

# query: %Inh of entry `COc1cc(Nc2nccc(N3CCC(NS(=O)(=O)c4ccc(NC(C)=O)cc4)CC3)n2)cc(OC)c1OC`
19%

* * *

Test system: MINK
Construct: gene MINK1
stated conditions: concentration: 1 μM, replicates: in singlicate; n = 1
quantity name: %Inh (%)
Report the value in % with no unit label.

# query: %Inh of entry Cc1cccc(Nc2nc(N[C@H]3CCCC[C@H]3N)ncc2C(N)=O)c1.Cl [GSK986310]
73

# query: %Inh of entry Cl.O=C(Nc1ccc(Oc2ccc3[nH]c(NC(=O)c4ccco4)nc3c2)cc1)Nc1cc(C(F)(F)F)ccc1F [GW683134]
0

# query: %Inh of entry Cc1cc(-c2c(-c3ccc(F)cc3)ncn2CCCN2CCOCC2)nc(N)n1 [SB-222517]
15

# query: %Inh of entry COc1cccc(-c2nc(-c3ccccc3)[nH]c2-c2ccncc2)c1 [SB-610250]
10

# query: %Inh of entry Cc1cc(-c2ccnc(Nc3cccc(C#N)c3)n2)cc(C)c1O [GSK1440913]
52

# query: %Inh of entry COc1ccc(C)c(Nc2ccnc(Nc3ccc(-c4cnc[nH]4)cc3)n2)c1.Cl [GW784041]
44

# query: %Inh of entry Cn1cc(-c2ccc3c(c2)CCN3C(=O)Cc2cc(F)cc(C(F)(F)F)c2)c2c(N)ncnc21 [GSK2635225]
7

# query: %Inh of entry CC(C)NCC(Cc1ccccc1)NC(=O)c1cc(Br)c(-c2ccnc3[nH]ccc23)s1.Cl.Cl (centres unmarked) [GSK1383281]
37

# query: %Inh of entry Cc1cccc(Nc2nc(NCCN)ncc2C(N)=O)c1 [GSK1292139]
87

# query: %Inh of entry Nc1ncc(-c2ccc3nccc(-c4ccncc4)c3c2)cc1S(=O)(=O)N1CCCCC1 [GSK1693850]
31

# query: %Inh of entry CN(C)c1ncnc2nc[nH]c12 [SKF-31736]
2

* * *

Hi there, I'd appreciate the recorded %Inh for every entry that follows.
Test system: MYLK
stated conditions: concentration: 1 μM, replicates: in singlicate; n = 1

# query: %Inh of entry `N#CC1(c2cccc(C(=O)Nc3cccc(Oc4ccc5nc(NC(=O)C6CC6)sc5n4)c3)c2)CC1`
23%

# query: %Inh of entry `Cc1cc(-c2ccnc(Nc3cccc(C#N)c3)n2)cc(C)c1O`
13%

# query: %Inh of entry `CNc1nccc(-c2ccc3c(N)n[nH]c3c2)n1`
68%

# query: %Inh of entry COc1cc(Nc2nccc(N3CCC(NC(=O)Nc4ccc5c(c4)OCO5)C3)n2)cc(OC)c1OC (stereo not drawn)
21%

# query: %Inh of entry `Cc1cc(-c2c(-c3ccc(F)cc3)ncn2CCCN2CCOCC2)nc(N)n1`
17%

# query: %Inh of entry `Nc1ncc(-c2ccc3nccc(-c4ccncc4)c3c2)cc1S(=O)(=O)N1CCCCC1`
22%

# query: %Inh of entry `CC(C)(C)c1ccc(C(=O)Nc2cn3cc(-n4ccnc4)ccc3n2)cc1`
0%

# query: %Inh of entry `O=C(O)C(F)(F)F.O=c1[nH]ccc2nc(N[C@@H]3CCNC3)nc(Nc3cc(Cl)cc(Cl)c3)c12`
92.4%

# query: %Inh of entry `COc1cc(Nc2ccnc3cc(-c4ccncc4)ccc23)cc(OC)c1OC.Cl`
84%

# query: %Inh of entry `COc1cccc(-c2nc(-c3ccccc3)[nH]c2-c2ccncc2)c1`
0%

# query: %Inh of entry `Fc1cc(Cl)ccc1Nc1ccnc2cc(-c3ccc(CN4CCOCC4)o3)ccc12`
47%

# query: %Inh of entry `O=C1NC(=O)C(c2ccccc2Cl)=C1Nc1cccc(Cl)c1`
9%

# query: %Inh of entry `CCn1c(-c2nonc2N)nc2c(-c3ccccc3)ncc(OCCCN)c21.O=C(O)C(F)(F)F.O=C(O)C(F)(F)F`
33%

# query: %Inh of entry `CC(=O)Nc1cn2nc(Oc3cccc(NC(=O)c4cccc(C(F)(F)F)c4)c3)ccc2n1`
44%

# query: %Inh of entry `Cc1ccc(NC(=O)c2ccnc(N3CCCCC3)c2)cc1-c1ccc(C(=O)NCC2CC2)cc1`
0%

* * *

Hi there, I'd appreciate the recorded %Inh for every entry that follows.
Tested on: EGFR
stated conditions: concentration: 1 μM, replicates: in singlicate; n = 1
Report the value in % with no unit label.

# query: %Inh of entry `CCn1c(-c2nonc2N)nc2c(-c3ccccc3)ncc(OCCCN)c21.O=C(O)C(F)(F)F.O=C(O)C(F)(F)F`
56

# query: %Inh of entry `CCNc1nccc(-c2c(-c3ccc(F)cc3)ncn2C2CCN(C)CC2)n1`
0

# query: %Inh of entry `COc1cccc(C2=C(Nc3cccc(O)c3)C(=O)NC2=O)c1`
41

# query: %Inh of entry `CS(=O)(=O)c1cccc(CNc2nc(Nc3ccc4c(c3)CCC(=O)N4)ncc2C(F)(F)F)c1`
0

# query: %Inh of entry `Cc1ccc(O)cc1Nc1ccnc2cc(-c3ccc(CN4CCCCC4)o3)ccc12`
46

# query: %Inh of entry `N#CC1(c2cccc(C(=O)Nc3cccc(Oc4ccc5nc(NC(=O)C6CC6)sc5n4)c3)c2)CC1`
36

* * *

System: ERBB3
stated conditions: concentration: 1 μM, replicates: in singlicate; n = 1
Hi there, I'd appreciate the recorded %Inh for every entry that follows.
Report the value in % with no unit label.

# query: %Inh of entry `COc1cccc(CC(=O)N2CCc3cc(-c4cn(C)c5ncnc(N)c45)ccc32)c1`
0

# query: %Inh of entry `Cc1ccc(Nc2ccnc(Nc3ccc(C)c(F)c3)n2)cc1O.Cl`
13

# query: %Inh of entry `Cn1cc(-c2cnc(N)c3c(-c4ccc5c(c4)CCN5C(=O)Cc4ccccc4)csc23)cn1`
4

# query: %Inh of entry CC(C)NCC(Cc1ccccc1)NC(=O)c1cc(Br)c(-c2ccnc3[nH]ccc23)s1.Cl.Cl (centres unmarked)
0

# query: %Inh of entry `CCNC(=O)/C=C/c1n[nH]c2cc(Sc3ccccc3C(=O)NC)ccc12`
3

# query: %Inh of entry `Cc1ccccc1CC(=O)N1CCc2cc(-c3cn(C)c4ncnc(N)c34)ccc21`
0

# query: %Inh of entry `Nc1cccc(-c2ccc3c(N)n[nH]c3c2)c1`
0

# query: %Inh of entry `CCn1c(-c2nonc2N)nc2c(-c3ccccc3)ncc(OCCCN)c21.O=C(O)C(F)(F)F.O=C(O)C(F)(F)F`
0

* * *

Test system: JNK2
Construct: gene MAPK9
stated conditions: concentration: 1 μM, replicates: in singlicate; n = 1
quantity name: %Inh (%)
Report the value in % with no unit label.

# query: %Inh of entry NCCC(NC(=O)c1cc(Br)c(-c2ccnc3[nH]ccc23)s1)c1ccccc1.O=C(O)C(F)(F)F.O=C(O)C(F)(F)F (stereo not shown)
15

# query: %Inh of entry `Cc1cc(-c2ccnc(Nc3cccc(C#N)c3)n2)cc(C)c1O`
77

# query: %Inh of entry `COc1cccc2c(-c3ccncc3)c(-c3ccc(F)cc3)nn12`
99.8

# query: %Inh of entry `Cc1nn2c(=O)cc(N3CCO[C@H](C)C3)nc2n1Cc1cccc(Cl)c1Cl`
9

# query: %Inh of entry `CN(C)CCOc1ccc(-c2cc(-c3ccc(Cl)c(O)c3)c(-c3ccncc3)[nH]2)cc1.Cl.Cl`
34

# query: %Inh of entry `CS(=O)(=O)c1cccc(CNc2nc(Nc3ccc4c(c3)CCC(=O)N4)ncc2C(F)(F)F)c1`
27

# query: %Inh of entry `CC(C)(C)c1ccc(C(=O)Nc2cn3cc(-n4ccnc4)ccc3n2)cc1`
0

# query: %Inh of entry `N#CC1(c2cccc(C(=O)Nc3cccc(Oc4ccc5nc(NC(=O)C6CC6)sc5n4)c3)c2)CC1`
0

# query: %Inh of entry `Cc1ccc(NC(=O)c2ccc(Cl)c(Cl)c2)cc1-c1ccc(C(=O)Nc2ccncc2)cc1`
4

# query: %Inh of entry `Nc1cccc(-c2ccc3c(N)n[nH]c3c2)c1`
13

# query: %Inh of entry `O=C(Nc1n[nH]c2nc(-c3ccccc3O)ccc12)C1CC1`
31

# query: %Inh of entry `O=C(Nc1c(F)cccc1F)c1cc(C(=O)c2ccccc2F)c[nH]1`
17

# query: %Inh of entry `O=C(O)C(F)(F)F.O=c1[nH]ccc2nc(N[C@@H]3CCNC3)nc(Nc3cc(Cl)cc(Cl)c3)c12`
7
